experiment: in vivo; details: female, BALB/c, mouse, iv, 5 mg/kg, Mean plasma concentration
Starred links: 1 amine or outer side, 2 acyl side, 3 side chain; linkers in the order of their positions; H or OH if unused. Positions of bridges follow the written chain, without caps; N, C: chain ends. Non-standard residues stand in square brackets, D forms with d. Residues, ends and D or L forms follow the SMILES beside them. *: point of attachment. dAsp(3R-OH) = N[C@@H](C(=O)O)[C@@H](O)C(=O)O; X1 = NC[C@H](O)[C@@H](N[*:1])C(=O)[*:2]; X2 = CCC(C)(O)[C@H](N[*:1])C(=O)[*:2]; d(aIle) = CC[C@H](C)[C@@H](N)C(=O)O; Myristoyl = CCCCCCCCCCCCCC(=O)*; dOrn = NCCC[C@@H](N)C(=O)O; hSer = N[C@@H](CCO)C(=O)O
readout: level at 8 h (ng/mL)
A number alone suffices; assume ng/mL.

State the recorded level at 8 h for this entry: CCCCCCCCCCCCCC(=O)N[C@H](CCCN)C(=O)N[C@@H](CO)C(=O)N[C@H](C(=O)N[C@@H](C(=O)N[C@@H](C(=O)N[C@@H]1C(=O)NCC(=O)N[C@@H](C(C)(O)CC)C(=O)N[C@H]([C@@H](C)CC)C(=O)N[C@@H](CCO)C(=O)N[C@@H](C)C(=O)N[C@H]([C@@H](C)CC)C(=O)N[C@@H](CCC(=O)O)C(=O)O[C@@H]1C)[C@@H](O)CN)[C@@H](O)C(=O)O)C(C)C (stereo partly drawn) [Compound 1, Turnercyclamycin A] (Myristoyl-[dOrn]SV[dAsp(3R-OH)][X1]TG[X2][d(aIle)][hSer]A[d(aIle)]E; ester 6-C) 12000
